target: Cts L (Homo sapiens); assay: Cathepsin L inhibition assay with Z-FR-AMC; settings: Cts L, mixed inhibition model fit, Z-FR-AMC, pH 5.5, 27 °C
Sequence (P07711 114-333): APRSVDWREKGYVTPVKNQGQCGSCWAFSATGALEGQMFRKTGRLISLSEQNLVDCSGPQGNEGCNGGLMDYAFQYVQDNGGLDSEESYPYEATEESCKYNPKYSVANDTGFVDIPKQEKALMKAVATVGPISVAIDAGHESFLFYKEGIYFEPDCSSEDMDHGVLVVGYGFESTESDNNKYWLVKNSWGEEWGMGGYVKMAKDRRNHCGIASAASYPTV
pKi: −log10 of the molar value. Starred links: 1 amine or outer side, 2 acyl side, 3 side chain; linkers in the order of their positions; H or OH if unused. Non-standard residues stand in square brackets, D forms with d. Residues, ends and D or L forms follow the SMILES beside them. Ala(7-MeO-coumarin-4-yl) = COc1ccc2c(C[C@H](N)C(=O)O)cc(=O)oc2c1; X1 = C[C@H](NC(=S)[C@H](CCCNC(=N)N)N[*:1])C(=O)[*:2]; X2 = C[C@H](NC(=S)[C@H](CCCCN)N[*:1])C(=O)[*:2]
Tag: Criterion met if measured pKi is not below 6, Criterion not met if it is.

COc1ccc2c(C[C@H](NC(=O)[C@H](C)NC(=O)[C@H](C)NC(=O)[C@H](C)NC(=S)[C@H](CCCNC(=N)N)NC(=O)[C@H](Cc3ccccc3)NC(=O)[C@H](CC(C)C)NC(=O)[C@H](Cc3c[nH]cn3)NC(=O)[C@@H](N)Cc3cc(=O)oc4cc(OC)ccc34)C(=O)O)cc(=O)oc2c1 [R^S3A, μHLFR^SAAAμ] (H-[Ala(7-MeO-coumarin-4-yl)]HLF[X1]AA[Ala(7-MeO-coumarin-4-yl)]-OH)	Criterion met
COc1ccc2c(C[C@H](NC(=O)[C@H](C)NC(=O)[C@H](C)NC(=O)[C@H](C)NC(=O)[C@H](CCCCN)NC(=O)[C@H](Cc3ccccc3)NC(=O)[C@H](CC(C)C)NC(=O)[C@H](Cc3c[nH]cn3)NC(=O)[C@@H](N)Cc3cc(=O)oc4cc(OC)ccc34)C(=O)O)cc(=O)oc2c1 [K3A, μHLFKAAAμ] (H-[Ala(7-MeO-coumarin-4-yl)]HLFKAAA[Ala(7-MeO-coumarin-4-yl)]-OH)	Criterion not met
COc1ccc2c(C[C@H](NC(=O)[C@H](C)NC(=O)[C@H](C)NC(=O)[C@H](C)NC(=S)[C@H](CCCCN)NC(=O)[C@H](Cc3ccccc3)NC(=O)[C@H](CC(C)C)NC(=O)[C@H](Cc3c[nH]cn3)NC(=O)[C@@H](N)Cc3cc(=O)oc4cc(OC)ccc34)C(=O)O)cc(=O)oc2c1 [K^S3A, μHLFK^SAAAμ] (H-[Ala(7-MeO-coumarin-4-yl)]HLF[X2]AA[Ala(7-MeO-coumarin-4-yl)]-OH)	Criterion met

Hi team, for COc1ccc2c(C[C@H](NC(=O)[C@H](C)NC(=O)[C@H](C)NC(=O)[C@H](C)NC(=O)[C@H](CCCNC(=N)N)NC(=O)[C@H](Cc3ccccc3)NC(=O)[C@H](CC(C)C)NC(=O)[C@H](Cc3c[nH]cn3)NC(=O)[C@@H](N)Cc3cc(=O)oc4cc(OC)ccc34)C(=O)O)cc(=O)oc2c1 [R3A, μHLFRAAAμ] (H-[Ala(7-MeO-coumarin-4-yl)]HLFRAAA[Ala(7-MeO-coumarin-4-yl)]-OH) , is the recorded pKi at or above 6? Criterion not met
